# STUDY TARGET: human F508del-CFTR (Homo sapiens, UniProt P13569, DEL508-508)
# Sequence (P13569 with tags, fused parts or gaps DEL508-508): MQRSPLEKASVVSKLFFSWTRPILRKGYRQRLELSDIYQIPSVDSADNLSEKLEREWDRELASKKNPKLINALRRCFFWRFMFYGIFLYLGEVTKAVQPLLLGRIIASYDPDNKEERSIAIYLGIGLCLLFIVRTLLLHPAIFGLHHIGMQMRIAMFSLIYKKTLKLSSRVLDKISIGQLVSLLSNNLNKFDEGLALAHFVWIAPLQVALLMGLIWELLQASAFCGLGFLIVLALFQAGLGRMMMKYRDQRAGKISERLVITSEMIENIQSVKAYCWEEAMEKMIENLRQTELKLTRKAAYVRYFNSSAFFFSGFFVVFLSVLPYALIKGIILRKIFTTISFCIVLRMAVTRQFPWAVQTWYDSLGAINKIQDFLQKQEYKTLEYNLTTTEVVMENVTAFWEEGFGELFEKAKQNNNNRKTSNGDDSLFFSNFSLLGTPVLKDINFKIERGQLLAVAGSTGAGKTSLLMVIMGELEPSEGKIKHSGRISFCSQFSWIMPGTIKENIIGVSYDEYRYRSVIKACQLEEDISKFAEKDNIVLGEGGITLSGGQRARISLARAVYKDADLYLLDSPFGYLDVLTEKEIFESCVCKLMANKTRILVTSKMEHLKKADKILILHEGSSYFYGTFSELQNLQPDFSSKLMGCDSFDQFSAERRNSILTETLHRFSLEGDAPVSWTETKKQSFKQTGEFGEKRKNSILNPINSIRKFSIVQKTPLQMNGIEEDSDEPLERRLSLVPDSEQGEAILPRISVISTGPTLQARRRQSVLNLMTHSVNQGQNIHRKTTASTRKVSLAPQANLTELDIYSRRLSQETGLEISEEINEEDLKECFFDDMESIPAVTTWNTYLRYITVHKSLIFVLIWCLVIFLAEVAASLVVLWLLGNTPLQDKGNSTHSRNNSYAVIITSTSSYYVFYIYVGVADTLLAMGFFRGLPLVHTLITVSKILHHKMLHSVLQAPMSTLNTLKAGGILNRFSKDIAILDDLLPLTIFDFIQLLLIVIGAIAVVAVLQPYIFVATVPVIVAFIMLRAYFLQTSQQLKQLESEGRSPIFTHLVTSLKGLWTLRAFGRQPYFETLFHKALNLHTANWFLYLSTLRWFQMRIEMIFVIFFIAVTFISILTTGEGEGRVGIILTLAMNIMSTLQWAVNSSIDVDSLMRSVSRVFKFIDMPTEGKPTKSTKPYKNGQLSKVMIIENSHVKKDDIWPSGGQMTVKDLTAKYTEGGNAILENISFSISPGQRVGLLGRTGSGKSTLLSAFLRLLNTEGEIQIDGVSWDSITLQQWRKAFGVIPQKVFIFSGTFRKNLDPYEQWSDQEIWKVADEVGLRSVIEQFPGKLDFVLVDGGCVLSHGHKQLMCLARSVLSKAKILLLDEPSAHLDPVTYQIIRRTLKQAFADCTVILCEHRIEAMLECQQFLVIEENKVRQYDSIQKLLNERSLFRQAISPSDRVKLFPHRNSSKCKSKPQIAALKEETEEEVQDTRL
# TEST SUMMARY: F508del-CFTR cell surface expression (corrector activity), DiscoveRx ß-galactosidase complementation chemiluminescence assay in recombinant U2OS cell line
# SETUP CONDITIONS: EC50, F508del-CFTR cell surface expression, U2OS cells, 16h compound incubation; geomean values
READOUT LABEL: pEC50
pEC50 here: minus log base 10 of the concentration, concentration in moles per litre.

[
  {
    "LINE NOTATION": "COc1nccc2c1C(=O)N[C@H](C(=O)NCCc1noc(C3CC3)n1)CC(=O)N(C)[C@@H](CC(C)C)C(=O)N(C)[C@H](CC1CCC(F)(F)CC1)C(=O)N[C@H](Cc1ccccc1)CO2",
    "STUDY TARGET": "human F508del-CFTR (Homo sapiens, UniProt P13569, DEL508-508)",
    "REPORTED RESULT": 6.78
  }
]

Q) Look up and state reported pEC50 for Cc1cc(CCNC(=O)[C@@H]2CC(=O)N(C)[C@@H](CC3CCCC3)C(=O)N3CCOC[C@@H]3C(=O)N[C@H](Cc3ccccc3)COc3ccc4nc(C)oc4c3C(=O)N2)on1
A) 6.05

Q) Please indicate pEC50 recorded for Cc1cc(CCNC(=O)[C@@H]2CC(=O)N(C)[C@@H](CC(C)C)C(=O)N(CCC3CCCCC3)CC(=O)N[C@H](Cc3ccccc3)COc3ccc4nc(C)oc4c3C(=O)N2)on1
A) 6.89

Q) Note down pEC50 recorded for Cc1cc(CCNC(=O)[C@@H]2CC(=O)N(C)[C@@H](CC(C)C)C(=O)N(C)[C@H](C3CCCC3)C(=O)N[C@H](Cc3ccccc3)COc3cnc4ccc(F)cc4c3C(=O)N2)on1
A) 6.85

Q) For the compound Cc1nc2ccc3c(c2o1)C(=O)N[C@H](C(=O)NCCc1cccc(C(C)(F)F)c1)CC(=O)N(C)[C@@H](CC(C)C)C(=O)N(CCC1CCCCC1)CC(=O)N[C@H](Cc1ccccc1)CO3 , report pEC50.
A) 6.72

###

This section presents compounds with their documented Emax values.
# STUDY TARGET: human F508del-CFTR (Homo sapiens, UniProt P13569, DEL508-508)
# TEST SUMMARY: F508del-CFTR cell surface expression (corrector activity), DiscoveRx ß-galactosidase complementation chemiluminescence assay in recombinant U2OS cell line
# SETUP CONDITIONS: U2OS, in relation to the Emax of the corrector lumacaftor (=100%); U2OS cell line, 16h compound incubation; arithmetic mean values
Write the number in % without appending the unit.

Here's what some known entries look like.
[
  {
    "LINE NOTATION": "CC(C)C[C@H]1C(=O)N(C)C2(CC2)C(=O)N[C@H](Cc2ccccc2)COc2cnc3ccc(F)cc3c2C(=O)N[C@H](C(=O)NCCc2ccc(-c3ncccn3)cc2)CC(=O)N1C",
    "REPORTED RESULT": 311
  },
  {
    "LINE NOTATION": "COc1ccc(CCNC(=O)[C@@H]2CC(=O)N(C)[C@@H](CC(C)C)C(=O)N3CCCC[C@@H]3C(=O)N[C@H](Cc3ccccc3)COc3ccnc(OC)c3C(=O)N2)cc1",
    "REPORTED RESULT": 275
  },
  {
    "LINE NOTATION": "CC(C)C[C@H]1C(=O)N2CCOC[C@@H]2C(=O)N[C@H](Cc2ccccc2)COc2cnc3ccccc3c2C(=O)N[C@H](C(=O)NCCc2cc(C(C)(C)C)on2)CC(=O)N1C",
    "REPORTED RESULT": 257
  }
]

Q) Answer with the recorded Emax of CC(C)C[C@H]1C(=O)N2CCCC[C@@H]2C(=O)N[C@H](Cc2ccccc2)COc2cnc3ccccc3c2C(=O)N[C@H](C(=O)NCCc2ccc(F)c(F)c2)CC(=O)N1C only.
A) 191

Q) Supply Emax value. Item: CCOc1cccc2c1C(=O)N[C@H](C(=O)NCCc1ccc3c(c1)OCCO3)CC(=O)N(C)[C@@H](CC(C)C)C(=O)C1CCC[C@@H](N1)C(=O)N[C@H](Cc1ccccc1)CO2
A) 231

###

Measured pEC50 of individual entries
# STUDY TARGET: human F508del-CFTR (Homo sapiens, UniProt P13569, DEL508-508)
# TEST SUMMARY: F508del-CFTR cell surface expression (corrector activity), DiscoveRx ß-galactosidase complementation chemiluminescence assay in recombinant U2OS cell line
# SETUP CONDITIONS: EC50, F508del-CFTR cell surface expression, U2OS cells, 16h compound incubation; geomean of several measurements
Worth noting: pEC50 values are minus log10 of concentrations stated in mol/L.

Known results for compounds:
[
  {
    "LINE NOTATION": "COc1nccc2c1C(=O)N[C@H](C(=O)NCCc1noc(C3CC3)n1)CC(=O)N(C)[C@@H](CC(C)C)C(=O)N(C)[C@H](CCc1nc(C(C)(C)C)no1)C(=O)N[C@H](Cc1ccccc1)CO2",
    "STUDY TARGET": "human F508del-CFTR (Homo sapiens, UniProt P13569, DEL508-508)",
    "pEC50": 6.51
  },
  {
    "LINE NOTATION": "CC(C)C[C@H]1C(=O)N(C)C2(CC(F)(F)C2)C(=O)N[C@H](Cc2ccccc2)COc2cnc3ccc(F)cc3c2C(=O)N[C@H](C(=O)NCCc2nc(C3CC3)no2)CC(=O)N1C",
    "STUDY TARGET": "human F508del-CFTR (Homo sapiens, UniProt P13569, DEL508-508)",
    "pEC50": 6.92
  },
  {
    "LINE NOTATION": "COc1cc(CCNC(=O)[C@@H]2CC(=O)N(C)[C@@H](CC(C)C)C(=O)N3CCCC[C@@H]3C(=O)N[C@H](Cc3ccccc3)COc3cc(C)c4ncccc4c3C(=O)N2)on1",
    "STUDY TARGET": "human F508del-CFTR (Homo sapiens, UniProt P13569, DEL508-508)",
    "pEC50": 6.88
  },
  {
    "LINE NOTATION": "COc1cc(CCNC(=O)[C@@H]2CC(=O)N(C)[C@@H](CC(C)C)C(=O)N(C)[C@H](CC(F)F)C(=O)N[C@H](Cc3ccccc3)COc3ccc4cnc(C)cc4c3C(=O)N2)on1",
    "STUDY TARGET": "human F508del-CFTR (Homo sapiens, UniProt P13569, DEL508-508)",
    "pEC50": 6.53
  }
]

Would you kindly look at the next entry?
Q) For the compound COc1nccc2c1C(=O)N[C@H](C(=O)NCCc1noc(C3CC3)n1)CC(=O)N(C)[C@@H](CC(C)C)C(=O)N(C)[C@H](Cn1cc(-c3ccccc3)nn1)C(=O)N[C@H](Cc1ccccc1)CO2 , report pEC50.
A) 6.33

###

# STUDY TARGET: human F508del-CFTR (Homo sapiens, UniProt P13569, DEL508-508)
# TEST SUMMARY: F508del-CFTR cell surface expression (corrector activity), DiscoveRx ß-galactosidase complementation chemiluminescence assay in recombinant U2OS cell line
# SETUP CONDITIONS: U2OS, in relation to the Emax of the corrector lumacaftor (=100%); U2OS cell line, 16h compound incubation; arithmetic mean values
READOUT LABEL: Emax (%)
The figure you give is taken to be in %; do not add the unit.

[
  {
    "MOLECULE": "[2H]C([2H])([2H])Oc1cccc(CCNC(=O)[C@@H]2CC(=O)N(C)[C@@H](CC(C)C)C(=O)N(CCC3CCCCC3)CC(=O)N[C@H](Cc3ccccc3)COc3cnc4c(F)cccc4c3C(=O)N2)c1 [Example 384]",
    "Emax [%]": 282
  },
  {
    "MOLECULE": "CC(C)C[C@H]1C(=O)N2CCCC[C@@H]2C(=O)N[C@H](Cc2ccccc2)COc2cnc3ccccc3c2C(=O)N[C@H](C(=O)NCCc2cccc(-c3ncccn3)c2)CC(=O)N1C [Example 123]",
    "Emax [%]": 280
  }
]

Okay, now this molecule:
Q) Consider the molecule CC(C)C[C@H]1C(=O)N(C)CC(=O)N[C@H](Cc2ccccc2)COc2cc3ccccc3cc2C(=O)N[C@H](C(=O)NCCc2ccc3c(c2)OCO3)CC(=O)N1C [Example 236] . State its measured Emax.
A) 126

###

# STUDY TARGET: human F508del-CFTR (Homo sapiens, UniProt P13569, DEL508-508)
# TEST SUMMARY: F508del-CFTR cell surface expression (corrector activity), DiscoveRx ß-galactosidase complementation chemiluminescence assay in recombinant U2OS cell line;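 also: U2OS cells co-expressing ProLink-tagged F508del-CFTR and a membrane-anchored enzyme acceptor, where more surface CFTR restores β-galactosidase activity measured by chemiluminescence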
# SETUP CONDITIONS: EC50, F508del-CFTR cell surface expression, U2OS cells, 16h compound incubation; geomean of several measurements
Classify: true when EC50 is strictly less than 70 nM; false when EC50 is not.

Examples from the recorded data:
[
  {
    "LINE NOTATION": "COc1cc(CCNC(=O)[C@@H]2CC(=O)N(C)[C@@H](CC(C)C)C(=O)N(C)C3(CC3)C(=O)N[C@H](Cc3ccccc3)COc3ccc4ncc(F)cc4c3C(=O)N2)on1",
    "GROUP LABEL": "false"
  },
  {
    "LINE NOTATION": "COc1nc(C)cc2c1C(=O)N[C@H](C(=O)NCCc1cc(C)no1)CC(=O)N(C)[C@@H](CC(C)C)C(=O)N(C)[C@H](CCc1ccccc1)C(=O)N[C@H](Cc1ccccc1)CO2",
    "GROUP LABEL": "true"
  },
  {
    "LINE NOTATION": "COc1nc(C)cc2c1C(=O)N[C@H](C(=O)NCCn1nnc(C3CC3)n1)CC(=O)N(C)[C@@H](CC(C)C)C(=O)N1CCCC[C@@H]1C(=O)N[C@H](Cc1ccccc1)CO2",
    "GROUP LABEL": "false"
  },
  {
    "LINE NOTATION": "Cc1cc2c(c3cccnc13)C(=O)N[C@H](C(=O)NCCc1noc(C3CC3)n1)CC(=O)N(C)[C@@H](CC(C)C)C(=O)N(C)[C@H](Cc1nc(C(F)(F)F)no1)C(=O)N[C@H](Cc1ccccc1)CO2",
    "GROUP LABEL": "true"
  }
]

Alright, here's another compound for you.
Q) Consider COc1nc(C)cc2c1C(=O)N[C@H](C(=O)NCCn1ncc(C#N)n1)CC(=O)N(C)[C@@H](CC(C)C)C(=O)N1CCCC[C@@H]1C(=O)N[C@H](Cc1ccccc1)CO2 . Does its EC50 lie strictly below 70 nM?
A) false
